Molecular target: EPHB1 (UniProt P54762)
Sequence (P54762 whole entry, looked up): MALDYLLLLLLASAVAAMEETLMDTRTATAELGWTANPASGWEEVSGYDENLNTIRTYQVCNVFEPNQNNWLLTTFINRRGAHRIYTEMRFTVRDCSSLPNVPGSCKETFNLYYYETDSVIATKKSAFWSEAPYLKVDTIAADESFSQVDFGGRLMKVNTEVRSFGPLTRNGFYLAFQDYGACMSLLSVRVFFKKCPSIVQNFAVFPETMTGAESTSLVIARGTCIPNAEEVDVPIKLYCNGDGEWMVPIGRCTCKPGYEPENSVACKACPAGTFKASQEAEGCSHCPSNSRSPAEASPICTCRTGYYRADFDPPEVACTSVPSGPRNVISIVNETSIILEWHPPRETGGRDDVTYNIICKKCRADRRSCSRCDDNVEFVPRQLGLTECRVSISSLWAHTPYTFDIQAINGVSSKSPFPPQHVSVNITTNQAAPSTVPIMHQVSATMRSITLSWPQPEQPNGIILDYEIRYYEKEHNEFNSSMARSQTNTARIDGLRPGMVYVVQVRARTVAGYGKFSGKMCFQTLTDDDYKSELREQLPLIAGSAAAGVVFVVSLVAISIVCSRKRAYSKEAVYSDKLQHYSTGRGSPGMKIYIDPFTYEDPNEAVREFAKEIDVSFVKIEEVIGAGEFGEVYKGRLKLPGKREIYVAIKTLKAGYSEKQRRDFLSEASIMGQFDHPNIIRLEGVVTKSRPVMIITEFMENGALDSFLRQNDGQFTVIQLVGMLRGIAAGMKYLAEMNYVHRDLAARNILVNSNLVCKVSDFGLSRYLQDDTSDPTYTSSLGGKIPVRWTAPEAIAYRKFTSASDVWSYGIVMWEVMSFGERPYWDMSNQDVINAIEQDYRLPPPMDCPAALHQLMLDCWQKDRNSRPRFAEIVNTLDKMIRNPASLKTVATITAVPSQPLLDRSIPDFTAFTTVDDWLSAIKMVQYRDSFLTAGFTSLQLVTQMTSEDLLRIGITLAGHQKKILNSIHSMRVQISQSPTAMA
Experiment: phosphorylation enrichment, bacterial display (enrichment ratio); higher = better substrate or ligand; peptides without Tyr show the background;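 also: 11-residue human phosphosite peptides and single-mutation variants displayed on the E. coli surface, counted by deep sequencing, each peptide's frequency after selection divided by its frequency in the unselected input library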;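 also: frequency after pTyr selection over input frequency; kinase dosed for 20-30% of maximal phosphorylation in three min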
phosphorylation enrichment below 0.7 gives Criterion not met; phosphorylation enrichment at or above it gives Criterion met.

Reference set, count: 10
AVNNFYAAKKT [CCDC178_Y422_D420N] ... Criterion not met
KGSLPYNLILD [PKD1L2_Y406] ... Criterion not met
PGLSSYGVPGS [FLNB_Y1530_A1534G] ... Criterion not met
SDFSSYARTSI [TERT_Y949_YF] ... Criterion not met
ALAHKYQGGGG [HBB_Y146_H147Q] ... Criterion not met
LVVFEYMRHGD [NTRK1_Y591_M587V] ... Criterion not met
YGLQAYTKVKT [ALDH2_Y502_E504K] ... Criterion not met
LTQRTYMLENA [GPAA1_Y49_S51L] ... Criterion met
KTDKKYLMIKE [BAG3_Y451_E455K] ... Criterion not met
LKYAIYFEARE [LAMA2_Y1258] ... Criterion met

Inquiry: // inclusive: phosphorylation enrichment at least 0.7? input: KNNDGYTDFAE [MCFD2_Y135_I136T_YF]
Reply text: Criterion not met

Inquiry: Reported phosphorylation enrichment at or above 0.7? SSSGGYGGGYG [KRT19_Y61_A60G]
Reply text: Criterion not met
